pIC50 for assorted compounds
Test Protocol: Cytotoxicity against human RPMI 1788 cells assessed as cell viability after 48 hrs by MTT assay
Type: cell-based
Test Context: RPMI-1788, 48 h
The read-out pIC50 is expressed as -log10 of concentration in moles per litre.

Some entries whose results are on file:
CC1(C)C(=O)C=C[C@]2(C)[C@H]3CC[C@@]4(C)[C@H](c5ccoc5)OC(=O)[C@H]5O[C@]54[C@]3(C)[C@H](OC(=O)c3ccccc3)C[C@@H]12 :: 5.70
COC(=O)C[C@H]1[C@]2(C)C3=C(C)[C@H](c4ccoc4)C[C@H]3O[C@@H]2[C@@H]2OC[C@]3(C)C=CC(=O)[C@@]1(C)[C@@H]23 :: 5.57

// below: pIC50 requested for another compound
Recorded pIC50 of CC1(C)C(=O)C=C[C@]2(C)[C@H]3CC[C@@]4(C)[C@H](c5ccoc5)C(=O)[C@H]5O[C@]54[C@]3(C)[C@H](OC(=O)c3ccccc3)C[C@@H]12 , please.
4.79

* * *

Test system: HL-60
Test Protocol: Cytotoxicity against human HL60 cells assessed as cell viability after 48 hrs by MTT assay
Type: functional, cell-based
Test Context: HL-60, 48 h
The following molecules are shown together with reported IC50 values.

Worked examples, 2 molecules total:
CC1(C)C(=O)C=C[C@]2(C)[C@H]3CC[C@]4(C)C(=CC(=O)O[C@@]4(O)c4ccoc4)[C@]3(C)[C@H](O)C[C@@H]12 :: > 20 µM
C/C=C(/C)C(=O)O[C@H]1C[C@@H](OC(C)=O)[C@@]2(C)CO[C@H]3[C@H]4O[C@@H]5C[C@@H](c6ccoc6)C(C)=C5[C@@]4(C)[C@H](CC(=O)OC)[C@]1(C)[C@@H]32 [SALANNIN] :: > 20 µM

Please find the next molecule below.
Any idea what IC50 was measured for CCC(C)C(=O)O[C@H]1C[C@@H](OC(C)=O)[C@@]2(C(=O)OC)CO[C@H]3[C@@H](O)[C@@](C)([C@]45O[C@@]4(C)C4CC5O[C@@H]5C[C@@H](OC)C[C@]45O)[C@@H]4[C@@H](C(=O)OC)OC[C@@]14[C@@H]32 (stereo partly drawn) ?
> 20 µM

* * *

Tested on: SK-BR-3
Test Protocol: Cytotoxicity against human SK-BR-3 cells assessed as cell viability after 48 hrs by MTT assay
Type: functional, cell-based
Test Context: SK-BR-3, 48 h
The molecules listed here are annotated with their IC50.

// known answers, use as guide
CCC(C)C(=O)O[C@H]1C[C@@H](OC(C)=O)[C@@]2(C)CO[C@H]3[C@H]4O[C@@H]5C[C@@H](c6ccoc6)C(C)=C5[C@@]4(C)[C@H](CC(=O)OC)[C@]1(C)[C@@H]32 (stereo partly drawn) :: > 20 µM
CC(=O)O[C@@H]1C[C@H]2C(C)(C)C(=O)C=C[C@]2(C)[C@H]2CC[C@@]3(C)CC(=O)C=C3[C@@]21C [DESFURANOAZADIRADIONE] :: > 20 µM

Could you now consider this next molecule?
Form field: reported IC50 of C/C=C(/C)C(=O)O[C@H]1C[C@@H](OC(C)=O)[C@@]2(C)CO[C@H]3[C@H]4O[C@@H]5CC(=O)C(C)=C5[C@@]4(C)[C@H](CC(=O)OC)[C@]1(C)[C@@H]32
> 20 µM
